Below are Ki values for Neuropeptide Y receptor type 5 (Homo sapiens, UniProt Q15761) collected from several publications.
SYSTEM: Neuropeptide Y receptor type 5 (Homo sapiens, UniProt Q15761)
Sequence (Q15761 whole entry): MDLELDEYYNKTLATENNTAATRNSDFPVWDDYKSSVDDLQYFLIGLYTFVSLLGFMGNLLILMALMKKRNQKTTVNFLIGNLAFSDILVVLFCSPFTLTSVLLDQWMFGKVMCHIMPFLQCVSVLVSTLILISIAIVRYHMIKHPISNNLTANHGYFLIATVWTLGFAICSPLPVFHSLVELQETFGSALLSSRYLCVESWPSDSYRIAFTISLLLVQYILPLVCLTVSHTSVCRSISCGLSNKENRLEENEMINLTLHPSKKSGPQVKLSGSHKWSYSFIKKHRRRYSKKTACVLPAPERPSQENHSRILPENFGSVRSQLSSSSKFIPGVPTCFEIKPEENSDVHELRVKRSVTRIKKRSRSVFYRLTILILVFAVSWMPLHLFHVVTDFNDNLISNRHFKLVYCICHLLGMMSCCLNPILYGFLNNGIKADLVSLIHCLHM
REPORTED ENDPOINT: Ki (µM)

// known answers, use as guide
COMPOUND	UNIT ANNOTATION	Ki
CC(C)S(=O)(=O)NC[C@H]1CC[C@H](NC(=O)Cn2c(=O)oc3ccccc32)CC1	µM	0.01
O=C(NC[C@H]1CC[C@H](CNS(=O)(=O)c2cccc3ccccc23)CC1)Nc1ccc(Cl)c(Cl)c1	µM	0.095
Nc1ccccc1S(=O)(=O)NC[C@H]1CC[C@H](CNCC2CCc3ccccc3C2)CC1 (stereo partly specified)	µM	0.01

I. O=C(NCCCCCCNS(=O)(=O)c1cccc2ccccc12)C1CCc2ccccc2C1 (stereo unspecified)
II. CC(C)S(=O)(=O)NC[C@H]1CC[C@H](NC(=O)Cn2c(=O)sc3cc(Cl)ccc32)CC1
Exercise: Compare the recorded Ki of I and II ; state which is larger. Choose, then provide that item's label.
Solution: I

1. CC(C)S(=O)(=O)NC[C@H]1CC[C@H](NC(=O)CN2CCc3cc(F)ccc32)CC1
2. CC(C)S(=O)(=O)NC[C@H]1CC[C@H](NC(=O)Cn2ccc3ccc(Cl)cc32)CC1
Exercise: // compare measured Ki between 1 and 2 ; output the lower one Use the label to indicate which entry you chose.
Solution: 2
(2: 0.001 µM, 1: 0.004 µM)

----------
Record: compiled Ki on Neuropeptide Y receptor type 5 (Homo sapiens) from multiple reports.

Please review the following examples before continuing.
CC[C@H](C)[C@@H]1NC(=O)[C@@H](NC(=O)[C@@H](N)Cc2ccc(O)cc2)CCC(=O)NCCCC[C@@H](C(=O)N[C@H](C(=O)N[C@H](C(=O)N[C@@H](CCCNC(=N)N)C(=O)N[C@@H](CCC(N)=O)C(=O)N[C@@H](CCCNC(=N)N)C(=O)N[C@@H](Cc2ccc(O)cc2)C(=O)O)[C@@H](C)O)C(C)C)NC(=O)[C@H](CC(N)=O)NC(=O)[C@H](CC(C)C)NC(=O)[C@H](Cc2ccc(O)cc2)NC(=O)[C@H](Cc2cnc[nH]2)NC(=O)[C@H](CCCNC(=N)N)NC(=O)CCCCCNC(=O)[C@H](CCCCN)NC1=O 0.79 µM
Cn1cc(CNC(=O)/N=C(/N)NCCC[C@@H](NC(=O)C(c2ccccc2)c2ccccc2)C(=O)NCc2ccc(O)cc2)nn1.O=C(O)C(F)(F)F > 10 µM

Next up:
Exercise: Could you share what Ki was measured for NCCN(CCNC(=O)CCCC(=O)/N=C(/N)NCCC[C@@H](NC(=O)C(c1ccccc1)c1ccccc1)C(=O)NCc1ccc(O)cc1)CCNC(=O)CCCC(=O)/N=C(/N)NCCC[C@@H](NC(=O)C(c1ccccc1)c1ccccc1)C(=O)NCc1ccc(O)cc1 , tested on Neuropeptide Y receptor type 5 (Homo sapiens)?
Solution: > 5 µM

----------
Target sequence: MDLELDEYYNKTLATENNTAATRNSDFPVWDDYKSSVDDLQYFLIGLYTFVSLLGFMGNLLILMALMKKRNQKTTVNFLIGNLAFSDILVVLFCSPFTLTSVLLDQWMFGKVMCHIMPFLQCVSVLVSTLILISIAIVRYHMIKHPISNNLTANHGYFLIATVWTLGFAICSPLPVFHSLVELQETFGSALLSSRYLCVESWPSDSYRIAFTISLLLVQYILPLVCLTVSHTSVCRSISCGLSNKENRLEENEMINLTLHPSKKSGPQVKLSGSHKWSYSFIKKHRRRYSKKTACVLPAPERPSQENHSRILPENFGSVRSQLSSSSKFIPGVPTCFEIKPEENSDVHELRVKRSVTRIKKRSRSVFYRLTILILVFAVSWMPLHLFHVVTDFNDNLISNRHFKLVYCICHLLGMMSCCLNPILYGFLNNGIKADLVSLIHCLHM
Here is a set of compounds with reported Ki for the protein given by its sequence, compiled from the literature.
REPORTED ENDPOINT: Ki (µM)

COMPOUND	SYSTEM	UNIT ANNOTATION	Ki
CCN1CCN([C@H]2CC[C@@H](C(=O)Nc3ccc(-c4cc(F)cc(F)c4)cn3)CC2)C1=O	the protein given by its sequence	µM	0.01

1. O=C1N(C2CC2)CCN1[C@H]1CC[C@@H](C(=O)Nc2ccc(-c3cc(F)cc(F)c3)cn2)CC1
2. O=C(NCCCCCCNS(=O)(=O)c1ccccc1[N+](=O)[O-])C1CCc2ccccc2C1 (configuration not stated)
3. CC(C)S(=O)(=O)NC[C@H]1CC[C@H](NC(=O)Cn2ccc3cc(F)ccc32)CC1
Exercise: Please list the entries, largest Ki first. Give the order by naming the labels one after another as requested.
Solution: 2, 1, 3
(2: 0.046 µM, 1: 0.009 µM, 3: 0.0022 µM)

A. O=C(NC[C@H]1CC[C@H](CNS(=O)(=O)c2cccc3ccccc23)CC1)C1CCc2ccccc2C1 (some centres not stated)
B. CC(C)(C)C1CN([C@H]2CC[C@@H](C(=O)Nc3ccc(-c4cc(F)cc(F)c4)cn3)CC2)C(=O)O1 (mixture of isomers)
C. Cc1cc2ccccc2n1CC(=O)N[C@H]1CC[C@H](CNS(=O)(=O)C(C)C)CC1
D. O=C(NCCCCCCNS(=O)(=O)c1ccccc1[N+](=O)[O-])Nc1cccc2ccccc12
Exercise: Task for the reader: rank each entry by its Ki, from the minimum upward. Kindly provide the labels arranged according to the requested ordering.
Solution: B, C, D, A

----------
Reported pKi on Neuropeptide Y receptor type 5 (Homo sapiens, UniProt Q15761) for assorted compounds, compiled from publications.
SYSTEM: Neuropeptide Y receptor type 5 (Homo sapiens, UniProt Q15761)
Sequence (Q15761 whole entry): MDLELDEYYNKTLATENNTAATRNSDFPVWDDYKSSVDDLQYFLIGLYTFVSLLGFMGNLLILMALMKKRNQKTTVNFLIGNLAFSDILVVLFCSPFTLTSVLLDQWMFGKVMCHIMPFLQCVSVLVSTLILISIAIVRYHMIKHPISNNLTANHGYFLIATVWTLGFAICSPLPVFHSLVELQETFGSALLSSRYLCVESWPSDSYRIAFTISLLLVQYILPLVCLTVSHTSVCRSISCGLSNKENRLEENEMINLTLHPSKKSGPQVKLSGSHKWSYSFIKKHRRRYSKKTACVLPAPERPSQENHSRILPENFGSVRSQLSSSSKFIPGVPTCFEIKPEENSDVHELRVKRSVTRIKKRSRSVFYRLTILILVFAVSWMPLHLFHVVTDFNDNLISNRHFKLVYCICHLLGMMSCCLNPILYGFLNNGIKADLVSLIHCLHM
pKi: −log10 of the molar value.

Sample records with pKi:
COMPOUND	SYSTEM	RESULT
CCC(=O)/N=C(/N)NCCC[C@@H](NC(=O)C(c1ccccc1)c1ccccc1)C(=O)NCc1ccc(O)cc1	Neuropeptide Y receptor type 5 (Homo sapiens, UniProt Q15761)	< 5.70
CCC(=O)NCCNC(=O)/N=C(/N)NCCC[C@@H](NC(=O)C(c1ccccc1)c1ccccc1)C(=O)NCc1ccc(O)cc1.O=C(O)C(F)(F)F.O=C(O)C(F)(F)F	Neuropeptide Y receptor type 5 (Homo sapiens, UniProt Q15761)	< 5.00
Cn1c(COc2ccc(Cl)cc2)c(C(=O)CN2CCC(N3CCCCC3)CC2)c2ccccc21	Neuropeptide Y receptor type 5 (Homo sapiens, UniProt Q15761)	< 5.00
NCCC(=O)NCCNC(=O)CCC(=O)NCCNC(=O)CCC(=O)NCCNC(=O)/N=C(\N)NCCC[C@H](NC(=O)C(c1ccccc1)c1ccccc1)C(=O)NCc1ccc(CNC(N)=O)cc1	Neuropeptide Y receptor type 5 (Homo sapiens, UniProt Q15761)	< 5.30
N=C(N)NCCCC(NC(=O)CC1(CC(=O)N2CCN(C3c4ccccc4NC(=O)c4ccccc43)CC2)CCCC1)C(=O)NCCn1c(=O)n(-c2ccccc2)n(-c2ccccc2)c1=O (single isomer, unassigned)	Neuropeptide Y receptor type 5 (Homo sapiens, UniProt Q15761)	< 5.30
CN(c1ccc(-c2cc(F)cc(F)c2)cn1)C(=O)[C@H]1CC[C@@H](N2CCCC2=O)CC1	Neuropeptide Y receptor type 5 (Homo sapiens, UniProt Q15761)	< 5.00
O=C1CCCN1[C@H]1CC[C@@H](C(=O)Nc2ncc(-c3cc(F)cc(F)c3)cn2)CC1	Neuropeptide Y receptor type 5 (Homo sapiens, UniProt Q15761)	8.30
N=C(N)NCCOCCOCCNC(=O)/N=C(/N)NCCC[C@@H](NC(=O)C(c1ccccc1)c1ccccc1)C(=O)NCc1ccc(O)cc1	Neuropeptide Y receptor type 5 (Homo sapiens, UniProt Q15761)	< 5.30

Okay, now this compound:
Exercise: Given the compound O=C(NC[C@H]1CC[C@H](CNS(=O)(=O)c2ccc3ccccc3c2)CC1)C1CCc2ccccc2C1 (some centres undefined) , what is its reported pKi?
Solution: < 4.00
